These data points were gathered from ChEMBL document CHEMBL4732061.

- Test system: MCF7
- assayRemarks: Cytotoxicity against human MCF7 cells assessed as reduction in cell viability incubated for 48 hrs by CCK-8 assay
- Type: functional, cell-based
- measurementConditions: MCF7, 48 h
readoutType: pIC50
Field pIC50 (float): negative decimal logarithm of the concentration in molar.

Solved entries (count: 3):
{"columns": ["structureNotation", "value"],
 "data": [
  ["COc1cc2c(cc1OC)CN(CCCCCCC(=O)c1c(C)c(OC)c(OC)c(OC)c1OC)CC2", 4.29],
  ["COc1cc2c(c(OC)c1OC)CN(CCC(=O)c1c(C)c(OC)c(OC)c(OC)c1OC)CC2", 4.71],
  ["COc1cc2c(c(OC)c1OC)CN(CCCCCCC(=O)c1c(C)c(OC)c(OC)c(OC)c1OC)CC2", 4.40]
]}

Now take the following compound into account.
Exercise: State the recorded pIC50 for this entry: `COc1cc2c(cc1OC)CN(CCC(=O)c1c(C)c(OC)c(OC)c(OC)c1OC)CC2`
Key: 5.09
